Each entry below lists one item and its recorded GI50 value.
Test system: SF-268
Assay: NCI tumour cell line growth inhibition, 48 h
Calls of active or inactive are those of the source. Rule as the data show it: active = GI50 up to about 1.1 µM and inactive = higher.
measured.attribute: GI50

molecule	measured.attribute	result
Cc1ccc(C2SCC(=O)N2c2ccc(-n3c(-c4ccccc4)nc4ccccc4c3=O)cc2)cc1 (configuration not stated)	GI50	24.2 µM (inactive)
CCCCCc1cc2cc3c(c(O)c2c(=O)[nH]1)C1(CCC3)C(=O)c2c(O)c3c(c(O)c2C1=O)C(=O)C(OC)=CC3=O (configuration not stated)	GI50	0.807 µM (active)
CC(=O)Nc1ccc(C2=N/C(=C\c3ccc(Cl)cc3)C(=O)O2)cc1	GI50	34.3 µM (inactive)
N/C(=N\O)N/N=C/c1cccc(F)c1	GI50	21.6 µM (inactive)
CCOC(=O)C1=C(C)N2CCOC2(C)C(C(=O)OC)C1c1cccc(Cl)c1 (configuration not stated)	GI50	> 100 µM (inactive)
O=c1c2ccccc2nc(N/N=C/c2ccc([N+](=O)[O-])cc2)n1-c1ccccc1	GI50	12.1 µM (inactive)
Clc1cccc(C2SCc3nc4ccccc4n32)c1Cl (configuration not stated)	GI50	21 µM (inactive)
Cc1ccc(/C=C/C(=O)C(C)C)cc1	GI50	> 100 µM (inactive)
COc1ccc2cc(CNCCOCCOCCNCc3ccc4cc(OC)ccc4c3)ccc2c1	GI50	1.42 µM (inactive)
O=C(O)/C=N\N=c1[nH]c2ccccc2[nH]1	GI50	> 100 µM (inactive)
CN(Cc1nc2c(N)nc(N)nc2nc1N)c1ccc(C(=O)NC(CCC(=O)O)C(=O)O)cc1 (configuration not stated)	GI50	0.299 µM (active)
COc1ccc(N2C(=O)C3c4[nH]c5ccc(C)cc5c4C4CCC(C(C)(C)C)CC4C3C2=O)cc1 (configuration not stated)	GI50	13 µM (inactive)
COc1c(-c2nc3ccc(N4CCN(C)CC4)cc3[nH]2)cc(OC)c2[nH]c(COC(C)=O)nc12	GI50	94.8 µM (inactive)
CCOC(=N)CC(=O)Nc1ccccc1	GI50	> 46.5 µM (inactive)
Cn1cccc1/C=C/c1cc(Br)c(/C=C/c2cccn2C)cc1Br	GI50	20.5 µM (inactive)
C=CCOC(=O)Cn1cnc2c(N)ncnc21	GI50	> 100 µM (inactive)
COC(=O)C1CCC(=S)N1C(C)=O (configuration not stated)	GI50	> 100 µM (inactive)
CN(/N=C/c1ccc(Cl)cc1)C1=NCCCCN1	GI50	> 100 µM (inactive)
Cc1ccc2c3c(cnc2n1)C(=O)OCCN3C	GI50	> 100 µM (inactive)
Clc1ccc(-c2nnc3sc4nc5ccccc5c-4nn23)c(Cl)c1	GI50	33.7 µM (inactive)
N#CCc1c(-c2ccccc2)n(S(=O)(=O)c2ccccc2)c2ccccc12	GI50	> 100 µM (inactive)
CCOC(=O)Cc1c(Cc2[nH]c(C(=O)OCc3ccccc3)c(CC(=O)OCC)c2CC(=O)OCC)[nH]c(C(=O)OCc2ccccc2)c1CC(=O)OCC	GI50	> 100 µM (inactive)

---

Tested on: CCRF-CEM
Test: NCI tumour cell line growth inhibition, 48 h
Active and inactive are the calls of the source. Cut-off read from the data, not from the text of the source: active = GI50 up to about 1.1 µM and inactive = higher.
Outcome codes: active, inactive

molecule	assigned.class
OC(c1ccc(-c2ccccc2)cc1)C(F)(F)c1nc2ccccc2o1 (stereo unspecified)	inactive
Cc1cccc(C(C)(C)C)c1NC(=O)CCl	inactive
COc1ccc2/c(=C/c3ccc(N(C)C)cc3)c3cc(-c4ccccc4)[n+](C)n3c2c1	active
CCOC(=O)Nc1c(C#N)[n+]([O-])c2cc(Cl)c(Cl)cc2[n+]1[O-]	inactive
COC12c3ccccc3-c3ccccc3C1[C@H]1C(=O)OC(=O)[C@H]12 (stereo partly specified)	inactive
CCn1c2ccccc2c2ccc3c(c21)C(=O)c1ccccc1C3=O	inactive
